System: NCI-H1693 (Lung Adenocarcinoma)
Assay: combination Emax (second highest fraction inhibited in the dose matrix, 72 h); higher = more inhibition; extreme values may be limits of the assay
Please go through the items and note down their combination Emax.
No unit in the answer, only the number.

Lookup: Please give the measured combination Emax for this compound: NC1(C(=O)N[C@@H](CCO)c2ccc(Cl)cc2)CCN(c2ncnc3[nH]ccc23)CC1 [Capivasertib] + C[C@@H]1COCCN1C2=NC(=NC(=C2)C3(CC3)[S@](=N)(=O)C)C4=C5C=CNC5=NC=C4 [AZD6738] (first compound max 10 µM, 7x7, partner max 10 µM)
Found: 0.44

Lookup: Please give the measured combination Emax for this compound: CC(=O)Nc1cccc(-n2c(=O)n(C3CC3)c(=O)c3c(Nc4ccc(I)cc4F)n(C)c(=O)c(C)c32)c1 [Trametinib] + Cc1nc(-c2cn3c(n2)-c2ccc(-c4cnn(C(C)(C)C(N)=O)c4)cc2OCC3)n(C(C)C)n1 [Taselisib] (first compound max 1 µM, 7x7, partner max 10 µM)
Found: 0.469

Lookup: Please give the measured combination Emax for this compound: CN(CCO)CC[C@H](CSc1ccccc1)Nc1ccc(S(=O)(=O)NC(=O)c2ccc(N3CCC([C@@H](O)c4ccccc4-c4ccc(Cl)cc4)CC3)cc2)cc1S(=O)(=O)C(F)(F)F [AZD4320] + C[C@@H](Nc1cc(F)cc(F)c1)c1cc(C(=O)N(C)C)cc2c(=O)cc(N3CCOCC3)oc12 [AZD8186] (first compound max 1 µM, 7x7, partner max 3 µM)
Found: 0.386

Lookup: Please give the measured combination Emax for this compound: CC1(C)CCC(CN2CCN(c3ccc(C(=O)NS(=O)(=O)c4ccc(NCC5CCOCC5)c([N+](=O)[O-])c4)c(Oc4cnc5[nH]ccc5c4)c3)CC2)=C(c2ccc(Cl)cc2)C1 [Venetoclax] + C=CCn1c(=O)c2cnc(Nc3ccc(N4CCN(C)CC4)cc3)nc2n1-c1cccc(C(C)(C)O)n1 [AZD1775] (first compound max 1 µM, partner max 1 µM)
Found: 0.308

Lookup: Please give the measured combination Emax for this compound: COc1cc2c(cc1OCCCCCOc1cc3c(cc1OC)C(=O)N1C=C(C)C[C@H]1C=N3)N=C[C@@H]1CC(C)=CN1C2=O [SG3199] + O=C(c1cc(Cc2n[nH]c(=O)c3ccccc23)ccc1F)N1CCN(C(=O)C2CC2)CC1 [Olaparib] (first compound max 0.001 µM, 7x7, partner max 10 µM)
Found: 0.086

Lookup: Please give the measured combination Emax for this compound: COc1nnc2ccc(N3CCC(c4ccc(OCCN5CCN(C)C(=O)[C@H]5C)cc4)CC3)nn12 [AZD5153] + C=CCn1c(=O)c2cnc(Nc3ccc(N4CCN(C)CC4)cc3)nc2n1-c1cccc(C(C)(C)O)n1 [AZD1775] (first compound max 1 µM, partner max 1 µM)
Found: 0.565

Lookup: Please give the measured combination Emax for this compound: Cn1cnc2c(F)c(Nc3ccc(Br)cc3Cl)c(C(=O)NOCCO)cc21 [Selumetinib] + CC(C)n1c(=O)n(C)c2cnc3cc(F)c(-c4ccc(OCCCN5CCCCC5)nc4)cc3c21 [AZD1390] (first compound max 10 µM, 7x7, partner max 0.3 µM)
Found: 0.204

Lookup: Please give the measured combination Emax for this compound: CN(C)CCCOc1ccc(-c2ccc3ncc4c(c3c2)n(C2CCOCC2)c(=O)n4C)cn1 [AZD0156] + CCN(CCO)CCCOc1ccc2c(Nc3cc(CC(=O)Nc4cccc(F)c4)[nH]n3)ncnc2c1 [AZD2811] (first compound max 1 µM, 7x7, partner max 1 µM)
Found: 0.142

Lookup: Please give the measured combination Emax for this compound: COc1nnc2ccc(N3CCC(c4ccc(OCCN5CCN(C)C(=O)[C@H]5C)cc4)CC3)nn12 [AZD5153] + C[C@@H]1COCCN1C2=NC(=NC(=C2)C3(CC3)[S@](=N)(=O)C)C4=C5C=CNC5=NC=C4 [AZD6738] (first compound max 1 µM, 7x7, partner max 10 µM)
Found: 0.597

Lookup: Please give the measured combination Emax for this compound: Cn1cnc2c(F)c(Nc3ccc(Br)cc3Cl)c(C(=O)NOCCO)cc21 [Selumetinib] + C=CCn1c(=O)c2cnc(Nc3ccc(N4CCN(C)CC4)cc3)nc2n1-c1cccc(C(C)(C)O)n1 [AZD1775] (first compound max 10 µM, partner max 1 µM)
Found: 0.428

Lookup: Please give the measured combination Emax for this compound: NC1(C(=O)N[C@@H](CCO)c2ccc(Cl)cc2)CCN(c2ncnc3[nH]ccc23)CC1 [Capivasertib] + Cn1cnc2c(F)c(Nc3ccc(Br)cc3Cl)c(C(=O)NOCCO)cc21 [Selumetinib] (first compound max 10 µM, 7x7, partner max 10 µM)
Found: 0.44

Lookup: Please give the measured combination Emax for this compound: Cn1cnc2c(F)c(Nc3ccc(Br)cc3Cl)c(C(=O)NOCCO)cc21 [Selumetinib] + C[C@@H]1COCCN1C2=NC(=NC(=C2)C3(CC3)[S@](=N)(=O)C)C4=C5C=CNC5=NC=C4 [AZD6738] (first compound max 10 µM, 7x7, partner max 10 µM)
Found: 0.364

Lookup: Please give the measured combination Emax for this compound: CC1(C)CCC(CN2CCN(c3ccc(C(=O)NS(=O)(=O)c4ccc(NCC5CCOCC5)c([N+](=O)[O-])c4)c(Oc4cnc5[nH]ccc5c4)c3)CC2)=C(c2ccc(Cl)cc2)C1 [Venetoclax] + C[C@@H]1COCCN1C2=NC(=NC(=C2)C3(CC3)[S@](=N)(=O)C)C4=C5C=CNC5=NC=C4 [AZD6738] (first compound max 1 µM, 7x7, partner max 10 µM)
Found: 0.372

Hey, just so you know, these numbers are from the supplement of paper PMC11061612.
